tested_target: Transient receptor potential cation channel subfamily V member 1 (Homo sapiens)
assay_procedure: TRPV1 channel agonists by patch clamp, confirmation, automated patch clamp, HEK293 cells (AID 588633)
details: TRPV1-HEK293, automated patch clamp current; at 10 µM; stronger effect = higher value
Give measured activation for each item. Keep answers brief.
Numbers only, in %.

Worked examples, 6 compounds total:
CC(C)(C)c1ccc(C(=O)Nc2ccc(S(N)(=O)=O)cc2)cc1    378
COc1ccc(NC(=O)CCCSc2nc(-c3ccco3)cc(C(F)(F)F)n2)cc1OC    406
COc1ccc(Nc2nc(C)nc3c2oc2ccccc23)cc1    419
CC(C)(C)c1ccc(OCCCC(=O)N2CCOCC2)cc1    304
O=C(Nc1cccnc1)c1ccc(-c2ccccc2)cc1    67
Cc1cnc(NC(=O)c2cc3c(s2)CCCC3)s1    32.4

Dear reader, for each entry below, please note its activation.
1. CC(C)(C)c1ccc(NC(=O)c2ccsc2)cc1
2. COCCNC(=O)CCc1c(C)nc2c(c(C)nn2-c2ccc(C)cc2)c1C
3. O=C(NCCCc1ccccc1)c1ccc(F)cc1
4. CC(=O)c1ccc(N2CCN(C(=O)Nc3ccc(Cl)cc3)CC2)cc1
5. COc1cccc(/C=N/n2c(SC)nnc2-c2ccccc2)c1O
6. CC(C)(C)OC(=O)CNC(=O)c1[nH]cnc1C(=O)N[C@@H](Cc1ccccc1)C(=O)OC(C)(C)C

1: 199; 2: 197; 3: -2.6; 4: 6.07; 5: 173; 6: 28.7
